# Tested on: Pseudomonas aeruginosa
# experiment description: Antibacterial activity against Pseudomonas aeruginosa NCDC 105 by single disk method
# Type: functional
Please note: MIC exactly at 60 µg/mL is F. Only values below 60 µg/mL get T.

Is it true that MIC reported for CCn1cc(C(=O)O)c(=O)c2cc(F)c(N3CCN(CC(=O)Nc4nc5ccc(C)cc5s4)CC3)cc21 is less than 60 µg/mL?
T

Is it true that MIC reported for COc1c(N2CCN(CC(=O)Nc3nc4c(Cl)cccc4s3)C(C)C2)c(F)cc2c(=O)c(C(=O)O)cn(C3CC3)c12 (stereo not drawn) is less than 60 µg/mL?
T

Is it true that MIC reported for COc1c(N2CCN(CC(=O)Nc3nc4c(F)cccc4s3)C(C)C2)c(F)cc2c(=O)c(C(=O)O)cn(C3CC3)c12 (stereo not drawn) is less than 60 µg/mL?
T

Is it true that MIC reported for COc1c(N2CCN(CC(=O)Nc3nc4c([N+](=O)[O-])cccc4s3)C(C)C2)c(F)cc2c(=O)c(C(=O)O)cn(C3CC3)c12 (stereo not drawn) is less than 60 µg/mL?
F

Is it true that MIC reported for O=C(CN1CCN(c2cc3c(cc2F)c(=O)c(C(=O)O)cn3C2CC2)CC1)Nc1nc2c(Cl)ccc(Cl)c2s1 is less than 60 µg/mL?
F

Is it true that MIC reported for COc1c(N2CCN(CC(=O)Nc3nc4ccc(Cl)c(Cl)c4s3)C(C)C2)c(F)cc2c(=O)c(C(=O)O)cn(C3CC3)c12 (stereo not drawn) is less than 60 µg/mL?
T

Is it true that MIC reported for O=C(CN1CCN(c2cc3c(cc2F)c(=O)c(C(=O)O)cn3C2CC2)CC1)Nc1nc2ccc([N+](=O)[O-])cc2s1 is less than 60 µg/mL?
T

Reference source: ChEMBL document CHEMBL4602605
